Cited source: PubChem BioAssay (NCI)

Record form. Attribute: growth inhibition. Fill in for each entry.
Experiment: NCI Yeast Anticancer Drug Screen. Data for the cln2 rad14 strain (AID 165);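 note: 0% = growth equal to vehicle treated cultures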
Conditions: S. cerevisiae cln2 rad14 strain, at 50.0 µM, hits give high values
This is part of a sample that, as a whole, favours compounds with a hit. Of some 79,000 tested, about 15% had one in any assay. Active and inactive are the calls of the source. Cut-off read from the data, not from the text of the source: active = growth inhibition above about 70%; inactive = the rest.

Example molecules with recorded growth inhibition:
molecule	growth inhibition
COC(=O)C1C(O)C(C)C(=O)C(C)/C=C\C=C(C)C(=O)Nc2c(C)c(OC(C)=O)c3c(c2O)C(=O)C(C)=C2OCOC(=C23)C(C)=CC(C)(O)C(O)C(C)C1O (stereo unspecified)	75.6% (active)
CNc1ccc([N+](=O)[O-])cc1	22.9% (inactive)
O=[N+]([O-])c1cccc(S(=O)(=O)Cl)c1	43.9% (inactive)

Each of the following entries comes with a recorded value; kindly state growth inhibition for each.
1. C=C(C)C1CC2=C(O1)C(=O)c1ccccc1C2=O (stereo unspecified)
2. O=C(O)C1CCCCC1.[Ag]
3. NNC(=S)N/N=C(\CC1OC(=O)c2ccccc21)c1ccccc1O (stereo unspecified)

1: 59.9% (inactive); 2: 91% (active); 3: 32% (inactive)
